- Test system: Radical scavenging activity
- procedure summary: Antioxidant activity assessed as DPPH radical scavenging activity at 100 ug/mL after 30 mins
- Assay type: functional
Please use t whenever inhibition is not below 10%, and f whenever it is.

Answered examples (5):
> print(dat)
                              sample.smiles  class.name
1  CO/N=C1\[C@H]2CCC[C@@H]1[C@H](c1ccccc1Cl)N(C)[C@@H]2c1ccccc1Cl           t
2  CO/N=C1\[C@H]2CCC[C@@H]1[C@H](c1ccccc1OC)N[C@@H]2c1ccccc1OC           t
3  CO/N=C1\[C@H]2CCC[C@@H]1[C@H](c1cccc(OC)c1)N[C@@H]2c1cccc(OC)c1           t
4  CO/N=C1\[C@H]2CCC[C@@H]1[C@H](c1ccc(OC)cc1)N(C)[C@@H]2c1ccc(OC)cc1           t
5  CO/N=C1\[C@H]2CCC[C@@H]1[C@H](c1ccccc1Cl)N[C@@H]2c1ccccc1Cl           f

Can `CO/N=C1\[C@H]2CCC[C@@H]1[C@H](c1ccc(C)cc1)N(C)[C@@H]2c1ccc(C)cc1` be said to have inhibition at or above 10%?
t

Exam item: decide whether the reported inhibition for `CO/N=C1\[C@H]2CCC[C@@H]1[C@H](c1cccc(F)c1)N[C@@H]2c1cccc(F)c1` is at least 10%.
f

Check if inhibition >= 10% (inclusive). Item: `CO/N=C1\[C@H]2CCC[C@@H]1[C@H](c1ccccc1C)N[C@@H]2c1ccccc1C`
f

---

- Test system: Radical scavenging activity
- procedure summary: Antioxidant activity assessed as DPPH radical scavenging activity at 100 ug/mL after 30 mins
- Assay type: functional
metric name: inhibition
Reply with the number, then its unit.

// solved cases for inhibition follow
> print(dat)
                              sample.smiles  result
1  CO/N=C1\[C@H]2CCC[C@@H]1[C@H](c1ccc(F)cc1)N(C)[C@@H]2c1ccc(F)cc1    2.4%
2  CO/N=C1\[C@H]2CCC[C@@H]1[C@H](c1ccc(OC(C)=O)c(OC)c1)N[C@@H]2c1ccc(OC(C)=O)c(OC)c1   32.4%
3  CO/N=C1\[C@H]2CCC[C@@H]1[C@H](c1ccccc1)N(C)[C@@H]2c1ccccc1   10.7%
4  CCCOc1ccc([C@H]2N[C@@H](c3ccc(OCCC)cc3)[C@H]3CCC[C@@H]2/C3=N\OC)cc1   23.9%

In one line, give reported inhibition of the entry `CCOc1ccc([C@H]2N[C@@H](c3ccc(OCC)cc3)[C@H]3CCC[C@@H]2/C3=N\OC)cc1` .
23.2%

Tell me measured inhibition for `CO/N=C1\[C@H]2CCC[C@@H]1[C@H](c1ccc(SC)cc1)N[C@@H]2c1ccc(SC)cc1` please.
17.6%

Indicate the recorded inhibition value for this compound: `CO/N=C1\[C@H]2CCC[C@@H]1[C@H](c1ccc(Cl)cc1)N(C)[C@@H]2c1ccc(Cl)cc1`
11.9%

Give recorded inhibition. `CO/N=C1\[C@H]2CCC[C@@H]1[C@H](c1ccc(Cl)cc1)N[C@@H]2c1ccc(Cl)cc1`
6.58%

Tell us which inhibition value is on record for `CO/N=C1\[C@H]2CCC[C@@H]1[C@H](c1ccc(OCc3ccccc3)cc1)N[C@@H]2c1ccc(OCc2ccccc2)cc1`
27.9%

Supply recorded inhibition for `CO/N=C1\[C@H]2CCC[C@@H]1[C@H](c1ccc(Br)cc1)N[C@@H]2c1ccc(Br)cc1` here.
5.72%

Identify measured inhibition associated with `CCc1ccc([C@H]2N[C@@H](c3ccc(CC)cc3)[C@H]3CCC[C@@H]2/C3=N\OC)cc1`
11.9%

Give the value of inhibition reported for the following: `CCOc1ccccc1[C@H]1N[C@@H](c2ccccc2OCC)[C@H]2CCC[C@@H]1/C2=N\OC`
10.2%

Please look at this compound and report its inhibition: `CO/N=C1\[C@H]2CCC[C@@H]1[C@H](c1ccc(OC)cc1)N[C@@H]2c1ccc(OC)cc1`
13.9%

Specify reported inhibition for the compound shown: `CO/N=C1\[C@H]2CCC[C@@H]1[C@H](c1ccccc1C)N(C)[C@@H]2c1ccccc1C`
15.3%

Tell me inhibition reported for `CO/N=C1\[C@H]2CCC[C@@H]1[C@H](c1ccc(F)cc1)N[C@@H]2c1ccc(F)cc1`
3.6%

Consider the compound `CCCCOc1ccc([C@H]2N[C@@H](c3ccc(OCCCC)cc3)[C@H]3CCC[C@@H]2/C3=N\OC)cc1` . State its measured inhibition.
27.8%

Item `CO/N=C1\[C@H]2CCC[C@@H]1[C@H](c1cccc(OC)c1)N(C)[C@@H]2c1cccc(OC)c1` : provide inhibition
10.7%

Answer with the recorded inhibition of `CO/N=C1\[C@H]2CCC[C@@H]1[C@H](c1cccc(Br)c1)N[C@@H]2c1cccc(Br)c1` only.
4.35%

Tell me measured inhibition for `CO/N=C1\[C@H]2CCC[C@@H]1[C@H](c1ccccc1Br)N[C@@H]2c1ccccc1Br` please.
5.28%

---

- Test system: Radical scavenging activity
- procedure summary: Antioxidant activity assessed as DPPH radical scavenging activity at 100 ug/mL after 30 mins
- Type: functional
Measured inhibition, listed per entry.
// note: answer is a bare numeric in %

Example results:
> print(dat)
                              sample.smiles  unit.annotation  numeric.value
1  CO/N=C1\[C@H]2CCC[C@@H]1[C@H](c1ccc(C(C)C)cc1)N[C@@H]2c1ccc(C(C)C)cc1                %           15.3
2  CO/N=C1\[C@H]2CCC[C@@H]1[C@H](c1ccc(C)cc1)N[C@@H]2c1ccc(C)cc1                %           14.5
3  CO/N=C1\[C@H]2CCC[C@@H]1[C@H](c1ccccc1F)N[C@@H]2c1ccccc1F                %           2.33
4  CO/N=C1\[C@H]2CCC[C@@H]1[C@H](c1ccccc1OC)N(C)[C@@H]2c1ccccc1OC                %           15.4
5  CO/N=C1\[C@H]2CCC[C@@H]1[C@H](c1ccccc1)N[C@@H]2c1ccccc1                %           10.5
6  C=CCOc1ccc([C@H]2N[C@@H](c3ccc(OCC=C)cc3)[C@H]3CCC[C@@H]2/C3=N\OC)cc1                %           21.7
7  CO/N=C1\[C@H]2CCC[C@@H]1[C@H](c1ccc(Br)cc1)N(C)[C@@H]2c1ccc(Br)cc1                %           12.1

Turning to the following compound.
Provide inhibition value for the following compound: `CO/N=C1\[C@H]2CCC[C@@H]1[C@H](c1cccc(Cl)c1)N[C@@H]2c1cccc(Cl)c1`
4.77
